target: Hypoxia-inducible factor 1-alpha (Homo sapiens); test: Inhibition of hypoxia-induced HIF1alpha transcriptional activity in human HeLa cells expressing HRE-Luc at 30 uM after 12 hrs by luciferase reporter gene assay; format: cell-based
Sequence (Q16665 whole entry, looked up): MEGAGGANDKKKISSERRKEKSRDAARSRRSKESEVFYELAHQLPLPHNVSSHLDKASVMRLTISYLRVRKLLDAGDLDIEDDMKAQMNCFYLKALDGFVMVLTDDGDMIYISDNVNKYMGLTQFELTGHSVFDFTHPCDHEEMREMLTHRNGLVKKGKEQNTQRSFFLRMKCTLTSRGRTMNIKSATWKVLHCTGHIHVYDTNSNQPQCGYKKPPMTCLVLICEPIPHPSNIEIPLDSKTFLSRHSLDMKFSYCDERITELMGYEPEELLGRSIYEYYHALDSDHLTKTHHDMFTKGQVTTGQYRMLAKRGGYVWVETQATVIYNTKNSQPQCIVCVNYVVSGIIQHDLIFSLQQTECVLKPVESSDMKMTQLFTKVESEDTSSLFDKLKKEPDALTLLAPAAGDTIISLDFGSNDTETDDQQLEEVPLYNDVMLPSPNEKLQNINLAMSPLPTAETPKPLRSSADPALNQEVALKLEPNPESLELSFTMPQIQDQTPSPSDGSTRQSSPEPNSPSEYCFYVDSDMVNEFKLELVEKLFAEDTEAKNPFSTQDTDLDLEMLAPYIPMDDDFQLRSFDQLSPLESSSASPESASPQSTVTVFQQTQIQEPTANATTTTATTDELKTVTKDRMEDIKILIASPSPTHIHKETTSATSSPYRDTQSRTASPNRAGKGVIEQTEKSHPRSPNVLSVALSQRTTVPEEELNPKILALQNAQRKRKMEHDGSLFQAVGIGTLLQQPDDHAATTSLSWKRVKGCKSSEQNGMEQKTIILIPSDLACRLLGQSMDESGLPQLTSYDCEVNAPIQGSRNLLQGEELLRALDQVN
PROPERTY MEASURED: inhibition (%)

Answered cases to consult:
>  <SMILES>
c1ccc(Nc2n[nH]c3c2Cc2cc4c(cc2-3)OCO4)cc1

>  <inhibition (%)>
28

$$$$
>  <SMILES>
c1ccc(Nc2n[nH]c3c2Cc2ccccc2-3)cc1

>  <inhibition (%)>
0

$$$$
>  <SMILES>
COc1cccc2c1-c1[nH]nc(Nc3ccccc3)c1C2

>  <inhibition (%)>
3

$$$$

[I] COc1cccc2c1Cc1c-2n[nH]c1Nc1ccccc1
[II] COc1ccc2c(c1)Cc1c-2n[nH]c1Nc1ccccc1
[III] COc1ccc2c(c1)-c1n[nH]c(Nc3ccccc3)c1C2
[IV] COc1cc2c(cc1OC)-c1n[nH]c(Nc3ccccc3)c1C2
Could you please order the items by inhibition, going from the lowest number to the highest? To answer, write out the labels according to the requested order.
IV, III, II, I

###

biological target: Hypoxia-inducible factor 1-alpha (Homo sapiens, UniProt Q16665); test: Inhibition of hypoxia-induced HIF1alpha transcriptional activity in human HeLa cells expressing HRE-Luc after 12 hrs by luciferase reporter gene assay
Sequence (Q16665 whole entry): as the sequence (Q16665 whole entry, looked up) above
pIC50: −log10 of the molar value.
PROPERTY MEASURED: pIC50

Answered cases to consult:
>  <SMILES>
c1ccc2c(c1)Cc1c-2n[nH]c1Nc1ccc2c(c1)OCO2

>  <pIC50>
6.57

$$$$
>  <SMILES>
COC(=O)c1ccc(O)c(NC(=O)COc2ccc(C34CC5CC(CC(C5)C3)C4)cc2)c1

>  <pIC50>
4.68

$$$$
>  <SMILES>
COc1ccc(Nc2n[nH]c3c2Cc2ccccc2-3)cc1OC

>  <pIC50>
5.49

$$$$
>  <SMILES>
COc1ccc(Nc2n[nH]c3c2Cc2ccccc2-3)cc1

>  <pIC50>
5.85

$$$$
>  <SMILES>
Nc1ccc(NC(=O)Nc2cccc3c2C(=O)c2c-3n[nH]c2-c2ccc3c(c2)OCO3)cc1

>  <pIC50>
6.67

$$$$

[1] COc1cccc(Nc2n[nH]c3c2Cc2ccccc2-3)c1
[2] COc1cccc2c1Cc1c(Nc3ccc4c(c3)OCCO4)n[nH]c1-2
Could you tell me which of 1 and 2 has the lower pIC50 reading? Identify your selection by its label.
1

###

system: HCT-116; experiment: Cytotoxicity against human HCT116 cells after 72 hrs by MTT assay; assay type: functional, cell-based; conditions: HCT-116, 72 h
Reported pIC50 by item:
Note: pIC50 values are expressed as the negative base-10 logarithm of concentration in M.

Quick one: pIC50 of COc1ccc2c(c1)-c1n[nH]c(Nc3ccccc3)c1C2 ?
5.82

Quick one: pIC50 of COc1cccc(Nc2n[nH]c3c2Cc2ccccc2-3)c1 ?
5.66

Quick one: pIC50 of c1ccc(Nc2n[nH]c3c2Cc2cc4c(cc2-3)OCO4)cc1 ?
5.28

Quick one: pIC50 of COc1ccc(Nc2n[nH]c3c2Cc2ccccc2-3)cc1OC ?
6.14

Quick one: pIC50 of COc1ccc(Nc2n[nH]c3c2Cc2ccccc2-3)cc1 ?
5.51
